Tested on: RPMI-7951 (Melanoma);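 further: after 72 h of two-drug dosing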
Experiment: Bliss excess, mean over the matrix (fraction); higher = more synergy

MOLECULE | EXPERIMENTAL_TARGET | Bliss excess
Cc1cc2ncnn2cc1Nc1ncc2c(n1)n(C1CCOCC1)c(=O)n2C [AZD7648] + CCN(CCO)CCCOc1ccc2c(Nc3cc(CC(=O)Nc4cccc(F)c4)[nH]n3)ncnc2c1 [AZD2811] (first compound max 10 µM, 7x7, partner max 1 µM) | RPMI-7951 (Melanoma) | 0.0312
CC1(C)CCC(CN2CCN(c3ccc(C(=O)NS(=O)(=O)c4ccc(NCC5CCOCC5)c([N+](=O)[O-])c4)c(Oc4cnc5[nH]ccc5c4)c3)CC2)=C(c2ccc(Cl)cc2)C1 [Venetoclax] + C=CCn1c(=O)c2cnc(Nc3ccc(N4CCN(C)CC4)cc3)nc2n1-c1cccc(C(C)(C)O)n1 [AZD1775] (first compound max 1 µM, partner max 1 µM) | RPMI-7951 (Melanoma) | -0.0559
NC1(C(=O)N[C@@H](CCO)c2ccc(Cl)cc2)CCN(c2ncnc3[nH]ccc23)CC1 [Capivasertib] + COc1nnc2ccc(N3CCC(c4ccc(OCCN5CCN(C)C(=O)[C@H]5C)cc4)CC3)nn12 [AZD5153] (first compound max 10 µM, 7x7, partner max 1 µM) | RPMI-7951 (Melanoma) | 0.0498

----------
Test system: EMC-BAC-2 (Non-Small Cell Lung Carcinoma)
Assay: combination Emax (second highest fraction inhibited in the dose matrix, 72 h); higher = more inhibition; extreme values may be limits of the assay

MOLECULE | combination Emax
Cc1c2c(nn1C)CSCc1cc(n(C)n1)CSc1cc(c3ccccc3c1)OCCCc1c(C(=O)O)n(C)c3c-2c(Cl)ccc13 [AZD5991] + C=CCn1c(=O)c2cnc(Nc3ccc(N4CCN(C)CC4)cc3)nc2n1-c1cccc(C(C)(C)O)n1 [AZD1775] (first compound max 1 µM, partner max 1 µM) | 0.842
COc1cccc(OCCCN)c1-c1cc(Nc2cnc(C#N)cn2)n[nH]1 [Prexasertib] + Cc1cc2ncnn2cc1Nc1ncc2c(n1)n(C1CCOCC1)c(=O)n2C [AZD7648] (first compound max 1 µM, 7x7, partner max 10 µM) | 0.538
Cc1c2c(nn1C)CSCc1cc(n(C)n1)CSc1cc(c3ccccc3c1)OCCCc1c(C(=O)O)n(C)c3c-2c(Cl)ccc13 [AZD5991] + C[C@@H]1COCCN1C2=NC(=NC(=C2)C3(CC3)[S@](=N)(=O)C)C4=C5C=CNC5=NC=C4 [AZD6738] (first compound max 1 µM, 7x7, partner max 10 µM) | 0.862
COc1cccc(OCCCN)c1-c1cc(Nc2cnc(C#N)cn2)n[nH]1 [Prexasertib] + C[C@@H]1COCCN1C2=NC(=NC(=C2)C3(CC3)[S@](=N)(=O)C)C4=C5C=CNC5=NC=C4 [AZD6738] (first compound max 1 µM, 7x7, partner max 10 µM) | 0.497
COc1nnc2ccc(N3CCC(c4ccc(OCCN5CCN(C)C(=O)[C@H]5C)cc4)CC3)nn12 [AZD5153] + Cc1c2c(nn1C)CSCc1cc(n(C)n1)CSc1cc(c3ccccc3c1)OCCCc1c(C(=O)O)n(C)c3c-2c(Cl)ccc13 [AZD5991] (first compound max 1 µM, 7x7, partner max 1 µM) | 0.886
CN(C)CCCOc1ccc(-c2ccc3ncc4c(c3c2)n(C2CCOCC2)c(=O)n4C)cn1 [AZD0156] + O=C(c1cc(Cc2n[nH]c(=O)c3ccccc23)ccc1F)N1CCN(C(=O)C2CC2)CC1 [Olaparib] (first compound max 3 µM, partner max 3 µM) | 0.486
COc1nnc2ccc(N3CCC(c4ccc(OCCN5CCN(C)C(=O)[C@H]5C)cc4)CC3)nn12 [AZD5153] + Cn1cnc2c(F)c(Nc3ccc(Br)cc3Cl)c(C(=O)NOCCO)cc21 [Selumetinib] (first compound max 1 µM, 7x7, partner max 10 µM) | 0.738
